What Population Tubulin-Different-Phenotype (%) was measured for each of the following?
- Test system: Fibroblast
- method notes: Multiplex assay against human fibroblast
- Assay type: toxicity, cell-based
- condition summary: 12 h, 1 µM, compound concentration 1 uM, replicate 1
Numbers only, in %.

| molecule | recorded result |
| --- | --- |
| O=C(O)Cc1ccccc1Nc1c(Cl)cccc1Cl [DICLOFENAC] | 25 |
| CN1CCN2c3ncccc3Cc3ccccc3C2C1 (stereo not drawn) [MIRTAZAPINE] | 24 |
| C[C@H]1[C@H]2CC[C@H]3[C@@H]4CC=C5C[C@@H](N(C)C)CC[C@]5(C)[C@H]4CC[C@]23CN1C [CONESSINE] | 19 |
| CC[C@H]1OC(=O)[C@H](C)[C@@H](O[C@H]2C[C@@](C)(OC)[C@@H](O)[C@H](C)O2)[C@H](C)[C@@H](O[C@@H]2O[C@H](C)C[C@H](N(C)C)[C@H]2O)[C@@]2(C)CC(C)=C(O2)[C@H](C)[C@@H](O)[C@]1(C)O | 40 |
| c1cc(OCCCN2CCCCC2)ccc1CN1CCCCC1 [JNJ-5207852] | 26 |

For each listed entry, give its Population Tubulin-Different-Phenotype (%).
1. COc1cc(C(=O)N(CCCc2ccccc2)Cc2ccc(CC(=O)O)cc2)cc(OC)c1C
2. Cc1ccccc1C(=O)Nc1ccc(C(=O)N2CCCC(N(C)C)c3ccccc32)cc1.Cl (stereo not drawn)
3. Cc1nc2ccc(Oc3ccc(F)cc3)cc2c(=O)n1C[C@H]1CCCN(C(C)C)C1.Cl
4. CNC[C@H](O)c1ccc(O)c(O)c1 [EPINEPHRINE]
5. Cc1ccc(/C(=C\CN2CCCC2)c2ccccn2)cc1 [TRIPROLIDINE]
6. Oc1c(CN2CCN(c3ccccn3)CC2)cc(Cl)c2cccnc12

Solution:
[15, 31, 31, 15, 29, 27]

For each listed entry, give its Population Tubulin-Different-Phenotype (%).
1. O=C1COc2nccc(-c3ccccc3F)c2CN1Cc1cc(C(F)(F)F)cc(C(F)(F)F)c1
2. C[C@@H]1C[C@H]2[C@@H]3CCC4=CC(=O)C=C[C@]4(C)[C@@]3(F)[C@@H](O)C[C@]2(C)[C@@]1(O)C(=O)CO [DEXAMETHASONE]

Solution:
[27, 26]
